assay: Solubility comparison in toluene at room temperature
Measure: solubility

### Prompt Need solubility, item CC1=Cc2c(ccc3ccccc23)[C]12[Si](C)(C)[C]1(C(C)=Cc3c1ccc1ccccc31)[Zr]2([Cl])[O]c1ccc(C(C)(C)C)cc1C(C)(C)C (stereo not shown)
### Response > 13 mM
